Target: Sphingosine 1-phosphate receptor 2 (Homo sapiens) (UniProt O95136)
Sequence (O95136 whole entry, looked up): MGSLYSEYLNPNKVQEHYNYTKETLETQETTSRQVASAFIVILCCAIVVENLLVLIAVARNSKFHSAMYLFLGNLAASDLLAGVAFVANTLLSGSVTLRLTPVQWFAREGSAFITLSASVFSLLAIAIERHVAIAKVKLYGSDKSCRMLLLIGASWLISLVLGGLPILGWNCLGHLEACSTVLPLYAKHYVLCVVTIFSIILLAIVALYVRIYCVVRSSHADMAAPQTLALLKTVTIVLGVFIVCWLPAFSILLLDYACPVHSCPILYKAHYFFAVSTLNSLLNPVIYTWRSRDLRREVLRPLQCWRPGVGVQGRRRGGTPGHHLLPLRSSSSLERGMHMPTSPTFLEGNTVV
Experiment: activation of human S1P2 receptor – cell-based, primary screen (AID 729);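 note: 0% = vehicle low control and 100% = maximal reference agonist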
Conditions: S1P2-expressing cell line, agonist reporter read-out; at 4.5 µM; hits give high values
Out of some 97,000 compounds screened, about 450 (0.46%) were called active. The entries come from a sample that favours actives as a whole.

compound	measured-on	activation
O=C(NCc1ccc(Cl)cc1)c1cc(=O)nc2sc(-c3ccccc3)nn12	Sphingosine 1-phosphate receptor 2 (Homo sapiens) (UniProt O95136)	-3.55% (inactive)
C=CCn1c(-c2ccc(Cl)cc2)ccc(C#N)c1=O	Sphingosine 1-phosphate receptor 2 (Homo sapiens) (UniProt O95136)	-1.04% (inactive)
Nc1nc(Br)c2ccccc2c1-c1ccc(F)cc1	Sphingosine 1-phosphate receptor 2 (Homo sapiens) (UniProt O95136)	4.89% (inactive)
CCc1ccc(NC(=O)CN2C(=O)CSC2=O)cc1	Sphingosine 1-phosphate receptor 2 (Homo sapiens) (UniProt O95136)	-3.93% (inactive)
Fc1ccc(CNc2nc3ccccc3n3nnnc23)cc1	Sphingosine 1-phosphate receptor 2 (Homo sapiens) (UniProt O95136)	-7.16% (inactive)
O=C(Cc1ccccc1)N/N=C/c1ccc(Cl)cc1Cl	Sphingosine 1-phosphate receptor 2 (Homo sapiens) (UniProt O95136)	2.34% (inactive)
O=c1oc2c(Cl)cc(Cl)cc2cc1-c1nnc(Nc2ccccc2F)s1	Sphingosine 1-phosphate receptor 2 (Homo sapiens) (UniProt O95136)	-0.35% (inactive)
NC1=NC(=O)C2(COC(c3ccccc3Cl)OC2)S1 (stereo unspecified)	Sphingosine 1-phosphate receptor 2 (Homo sapiens) (UniProt O95136)	-5.49% (inactive)
O=[N+]([O-])c1ccc(Oc2ccc(F)cc2Br)c2ccncc12	Sphingosine 1-phosphate receptor 2 (Homo sapiens) (UniProt O95136)	-12.3% (inactive)
Cc1ccccc1CSCCNC(=O)c1ccc(Cl)c(S(=O)(=O)N2CCOCC2)c1	Sphingosine 1-phosphate receptor 2 (Homo sapiens) (UniProt O95136)	-6.39% (inactive)
COc1ccc(N(CC(=O)N/N=C/c2cccs2)S(=O)(=O)c2ccc(OC)c(OC)c2)cc1	Sphingosine 1-phosphate receptor 2 (Homo sapiens) (UniProt O95136)	-7.16% (inactive)
